# reported EC50; entries follow
- measurement-target: Gal4-RORγ-LBD (Homo sapiens)
- Construct: expressed in transfected cells
- assay-comment: Gal4-RORγ Luciferase Reporter Assay in HEK-293T Cells
- Format: cell-based
- assay-context: HEK-293 cells, luciferase reporter, with ursolic acid

# count of solved cases: 8
molecule	EC50
C/C(=C\c1ccc2c(c1)N(S(=O)(=O)c1cc(F)cc(C(F)(F)F)c1)C[C@H](CCC(=O)O)O2)c1c(F)cccc1Cl [Example 86AQ]	< 500 nM
COC(=O)CC[C@H]1CN(S(=O)(=O)c2cccc(C(F)(F)F)c2)c2cc(/C=C/c3c(Cl)cccc3C(C)(F)F)ccc2O1 [Example 89EW]	< 500 nM
COC(=O)CC[C@H]1CN(S(=O)(=O)c2cccc(C(F)(F)F)c2)c2cc(/C=C3\CCOc4ccccc43)ccc2O1 [Example 38A]	500 to 5000 nM
CC1CCCC(=Cc2ccc3c(c2)N(S(=O)(=O)c2cc(C(F)(F)F)cnc2OCCO)C[C@H](CCC(=O)O)O3)C1 (some centres unmarked) [Example 95U]	500 to 5000 nM
CCOc1ncc(Cl)cc1S(=O)(=O)N1C[C@H](CCC(=O)OC)Oc2ccc(/C=C(\C)c3c(F)cccc3Cl)cc21	500 to 5000 nM
COc1cc(S(=O)(=O)N2C[C@H](CC(C)(C)C(=O)O)Cc3ccc(OCc4c(F)cccc4Cl)cc32)ccc1F	< 500 nM
C/C(=C\c1cc2c(cc1Cl)O[C@@H](CCC(=O)O)CN2S(=O)(=O)c1cccc(OC(F)F)c1)c1c(F)cccc1Cl	< 500 nM
C/C(=C\c1ccc2c(c1)N(S(=O)(=O)c1cn(C(C)C)nc1OCCO)C[C@H](CCC(=O)O)O2)c1c(F)cccc1Cl [Example 86AY]	< 500 nM

Entry COC(=O)CC[C@H]1CN(S(=O)(=O)c2ccc(F)c(Cl)c2)c2cc(/C=C(\C)c3c(F)cccc3Cl)ccc2O1 [Example 86F] , tested on Gal4-RORγ-LBD (Homo sapiens), has a reported EC50 of < 500 nM

Record C/C(=C\c1ccc2c(c1)N(S(=O)(=O)c1cn(C(F)F)nc1C)C[C@H](CCC(=O)O)O2)c1c(F)cccc1Cl [Example 86W] / Gal4-RORγ-LBD (Homo sapiens), EC50 recorded as > 10000 nM

Gal4-RORγ-LBD (Homo sapiens) EC50 of CCOc1nn(CC)cc1S(=O)(=O)N1C[C@H](CCC(=O)OC)Oc2ccc(/C=C/c3ncccc3F)cc21 [Example 89X] is > 10000 nM

Form: item CCOc1nn(CC)cc1S(=O)(=O)N1C[C@H](CCC(=O)OC)Oc2ccc(/C=C/c3cccs3)cc21 [Example 89P] ; test system Gal4-RORγ-LBD (Homo sapiens); EC50: > 10000 nM

EC50 for Gal4-RORγ-LBD (Homo sapiens) with input CCOc1ncc(C(F)(F)F)cc1S(=O)(=O)N1C[C@H](CCC(=O)OC)Oc2ccc(/C=C(\C)c3c(Cl)cccc3C(F)(F)F)cc21 equals 500 to 5000 nM

====

# pEC50 per entry
- measurement-target: Gal4-RORγ-LBD (Homo sapiens, UniProt P51449)
- Construct: expressed in transfected cells
- assay-comment: Gal4-RORγ Luciferase Reporter Assay in HEK-293T Cells
- Type: cell-based
- assay-context: HEK-293 cells, luciferase reporter, in presence of ursolic acid
pEC50: −log10 of the molar value.

The cases that follow already have their pEC50 on record.
compound	result-value
C/C(=C\c1ccc2c(c1)C(S(=O)(=O)c1cccc(C(F)(F)F)c1)CC(CCC(=O)O)O2)c1c(F)cccc1Cl (stereo not drawn) [Example 186I]	> 6.30
COc1cc(S(=O)(=O)N2C[C@H](CC(C)(C)C(=O)O)Cc3ccc(/C=C(\C)c4c(F)cccc4Cl)cc32)ccc1F [Example 154C]	5.30 to 6.30

Continue with the compound presented below.
# value of pEC50, Gal4-RORγ-LBD (Homo sapiens, UniProt P51449), item O=C(CC[C@H]1CN(S(=O)(=O)c2cccc(C(F)(F)F)c2)c2cc(/C=C/c3c(Cl)cccc3C(F)(F)F)ccc2O1)N1CC2(COC2)C1 [Example 127G] = 5.30 to 6.30

====

- measurement-target: RORγ-LBD (Homo sapiens, UniProt P51449)
- Construct: made in house; host or cells: SF9 cells (baculovirus); used as diluted lysate
- assay-comment: RORγ-Ligand Binding Domain (LBD) TR-FRET Assay
- Type: biochemical
- assay-context: RORγ-LBD TR-FRET
- Procedure: Assay procedures and results are described below. HIS-tagged RORγ-LBD protein was expressed in SF9 cells using a baculovirus expression system. The lysate was diluted in assay buffer (50 mM Tris pH 7.0, 50 mM KCl, 1 mM EDTA, 0.1 mM DTT, 0.01% BSA) to obtain RORγ-LBD final concentration of ˜3 nM in a 384-well assay plate (need to titrate for each batch of protein). […]
pEC50: −log10 of the molar value.
outcome-measure: pEC50

CCOc1ncc(Cl)cc1S(=O)(=O)N1C[C@H](CCC(=O)OC)Oc2ccc(/C=C/c3c(F)cccc3Cl)cc21 [Example 89CW] yielded pEC50 of > 6.30

Recorded pEC50 (compound Cc1ccnc(/C=C/c2ccc3c(c2)N(S(=O)(=O)c2cccc(C(F)(F)F)c2)C[C@H](CCC(=O)O)O3)c1F [Example 89CH] ): > 6.30

compound C/C(=C\c1ccc2c(c1)N(S(=O)(=O)c1cccc(C(F)(F)F)c1C)C[C@H](CCC(=O)O)O2)c1c(F)cccc1Cl [Example 86AM] , pEC50 observed: > 6.30

GET /value?item= CCC(=Cc1ccc2c(c1)N(S(=O)(=O)c1cc(C(F)(F)F)cnc1OCCO)C[C@H](CCC(=O)O)O2)CC [Example 95F] &field=pEC50 returns > 6.30

The value of pEC50 measured for the compound COc1cc(S(=O)(=O)N2CCCc3ccc(O[C@H]4CCc5ccccc54)cc32)ccc1F [Example 25A] turned out to be > 6.30

pEC50 in this record for C[C@@H]1C/C(=C\c2ccc3c(c2)N(S(=O)(=O)c2cccc(C(F)(F)F)c2)C[C@H](CCC(=O)O)O3)C[C@H](C)C1 [Example 95Z] : > 6.30

The measured pEC50 associated with C/C(=C\c1cc(F)c2c(c1)N(S(=O)(=O)c1cccc(OC(F)F)c1)C[C@H](CCC(=O)O)O2)c1c(F)cccc1Cl reads > 6.30

====

Measured EC50 of individual entries
- measurement-target: Gal4-RORγ-LBD (Homo sapiens, UniProt P51449)
- Construct: expressed in transfected cells
- Sequence (P51449 269-508 limits assumed): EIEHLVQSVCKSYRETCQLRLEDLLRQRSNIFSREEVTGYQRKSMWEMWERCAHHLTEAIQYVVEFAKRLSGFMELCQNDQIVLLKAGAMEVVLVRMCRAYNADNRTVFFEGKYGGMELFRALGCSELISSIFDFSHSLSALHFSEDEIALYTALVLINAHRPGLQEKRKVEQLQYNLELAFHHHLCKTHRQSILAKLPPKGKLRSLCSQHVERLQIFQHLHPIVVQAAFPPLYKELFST
- assay-comment: Gal4-RORγ Luciferase Reporter Assay in HEK-293T Cells
- Type: cell-based
- assay-context: HEK-293 cells, luciferase reporter, in presence of ursolic acid

molecule	measurement-target	EC50
C/C(=C\c1ccc2c(c1)N(S(=O)(=O)c1cccc(C(F)(F)F)c1)C[C@@H](O)C2)c1c(F)cccc1Cl	Gal4-RORγ-LBD (Homo sapiens, UniProt P51449)	< 500 nM
C/C(=C\c1ccc2c(c1)N(S(=O)(=O)c1cccc(C(F)(F)F)c1)C[C@H](CC(C)(C)O)O2)c1c(F)cccc1Cl [Example 121A]	Gal4-RORγ-LBD (Homo sapiens, UniProt P51449)	< 500 nM
CCn1cc(S(=O)(=O)N2C[C@H](CCNC(C)=O)Oc3ccc(/C=C(\C)c4c(F)cccc4Cl)cc32)c(Cl)n1 [Example 116E]	Gal4-RORγ-LBD (Homo sapiens, UniProt P51449)	< 500 nM
COc1cc(S(=O)(=O)N2C[C@H](CNC(C)=O)Oc3ccc(/C=C(\C)c4c(F)cccc4Cl)cc32)ccc1F [Example 109B]	Gal4-RORγ-LBD (Homo sapiens, UniProt P51449)	< 500 nM
COc1cc(S(=O)(=O)C2CC(CCC(=O)O)Oc3ccc(OCc4c(F)cccc4Cl)cc32)ccc1F (stereo not shown)	Gal4-RORγ-LBD (Homo sapiens, UniProt P51449)	500 to 5000 nM
C/C(=C\c1ccc2c(c1)N(S(=O)(=O)c1cc(C(F)(F)F)ccc1OCCO)C[C@H](CCC(=O)N1CCC(C(=O)O)CC1)O2)c1c(F)cccc1Cl [Example 129M]	Gal4-RORγ-LBD (Homo sapiens, UniProt P51449)	500 to 5000 nM

C/C(=C\c1ccc2c(c1)N(S(=O)(=O)c1cccc(C(F)(F)F)c1)C[C@H](CCC(=O)NCC(=O)O)O2)c1c(F)cccc1Cl [Example 129E] has a reported EC50 of 500 to 5000 nM

Entry source: patent US9896441B2
